test: in vitro; details: human, mock-infected MT-2 cells
property: CC50 at 4 day (µM)
Dear colleague, please return just the value in µM, with no unit written.

Input line: Reported CC50 at 4 day, compound C=C(CBr)[C@@H]1CC[C@]2(C(=O)NC(CC(C)C)C(=O)O)CC[C@]3(C)[C@H](CC[C@@H]4[C@@]5(C)CC[C@H](OC(=O)CC(C)(C)C(=O)O)C(C)(C)[C@@H]5CC[C@]43C)[C@@H]12 (stereo partly shown) : ____
Output line: 33.2

* * *

tested on: HIV-1; assay: Example 2 anti-HIV bioassay of C-28 ethylene glycol bevirimat analogs; format: cell-based; details: Example 2 compounds (Scheme B)
Quick reference for EC50 among some compounds
Dear colleague, please return just the value in nM, with no unit written.

smiles structure | target desc | EC50 [nM]
C=C(COCCN1CCOCC1)[C@@H]1CC[C@]2(C(=O)NCCCCCCCC(=O)NC)CC[C@]3(C)[C@H](CC[C@@H]4[C@@]5(C)CC[C@H](O)C(C)(C)[C@@H]5CC[C@]43C)[C@@H]12 | HIV-1 | 46

Turning now to a further record.
Input line: Reported EC50, compound C=C(COCCN1CCOCC1)[C@@H]1CC[C@]2(C(=O)NCCCCCCCC(=O)O)CC[C@]3(C)[C@H](CC[C@@H]4[C@@]5(C)CC[C@H](O)C(C)(C)[C@@H]5CC[C@]43C)[C@@H]12 : ____
Output line: 170

* * *

tested on: mock-infected MT-4 cell; assay: Cytotoxicity in mock-infected MT-4 cells; format: cell-based
Quick reference for CC50 among some compounds
Dear colleague, please return just the value in µM, with no unit written.

Please review the following examples before continuing.
smiles structure | data value
C=C(C)[C@@H]1CC[C@]2(C(=O)N3CCC(CCCC(=O)N4CCOCC4)CC3)CC[C@]3(C)[C@H](CC[C@@H]4[C@@]5(C)CC[C@H](OC(=O)CC(C)(C)C(=O)O)C(C)(C)[C@@H]5CC[C@]43C)[C@@H]12 | 8.8
C=C(C)[C@@H]1CC[C@]2(C(=O)N3CCC(CCCC(=O)NCCCN4CCOCC4)CC3)CC[C@]3(C)[C@H](CC[C@@H]4[C@@]5(C)CC[C@H](OC(=O)CC(C)(C)C(=O)O)C(C)(C)[C@@H]5CC[C@]43C)[C@@H]12 | 8.6

Turning now to a further record.
Input line: Reported CC50, compound C=C(C)[C@@H]1CC[C@]2(C(=O)N3CCC(CCCC(=O)NCCN4CCOCC4)CC3)CC[C@]3(C)[C@H](CC[C@@H]4[C@@]5(C)CC[C@H](OC(=O)CC(C)(C)C(=O)O)C(C)(C)[C@@H]5CC[C@]43C)[C@@H]12 : ____
Output line: 8.5
